assayedSystem: T1, Macaca fascicularis (mf) RET.mmh (Macaca fascicularis)
T1 construct: also called monkey RET
T1 chain: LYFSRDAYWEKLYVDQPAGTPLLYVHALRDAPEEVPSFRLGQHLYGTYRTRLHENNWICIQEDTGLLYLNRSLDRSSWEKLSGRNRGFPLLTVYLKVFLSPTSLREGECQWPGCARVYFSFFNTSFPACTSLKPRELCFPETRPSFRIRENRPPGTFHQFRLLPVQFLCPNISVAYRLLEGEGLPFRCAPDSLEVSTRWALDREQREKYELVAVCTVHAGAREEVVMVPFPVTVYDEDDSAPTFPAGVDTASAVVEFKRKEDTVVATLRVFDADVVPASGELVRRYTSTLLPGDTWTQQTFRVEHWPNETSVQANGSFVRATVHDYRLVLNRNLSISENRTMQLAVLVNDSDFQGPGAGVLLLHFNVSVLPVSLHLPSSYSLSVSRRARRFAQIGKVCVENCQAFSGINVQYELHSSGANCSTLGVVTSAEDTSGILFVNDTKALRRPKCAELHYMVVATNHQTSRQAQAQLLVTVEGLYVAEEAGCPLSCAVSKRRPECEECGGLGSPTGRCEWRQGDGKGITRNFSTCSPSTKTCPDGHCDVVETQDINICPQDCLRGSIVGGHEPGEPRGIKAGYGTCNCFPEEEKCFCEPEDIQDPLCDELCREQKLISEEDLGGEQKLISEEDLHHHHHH
experimentNotes: SPR Biacore T200, mAb capture, 25 C
Quick list: koff per entry.
Give the figure together with its unit, number first.

binder	result
H4H8087P (antibody, human IgG4, V domains shown, human IgG4 Fc (H4H prefix)) VH: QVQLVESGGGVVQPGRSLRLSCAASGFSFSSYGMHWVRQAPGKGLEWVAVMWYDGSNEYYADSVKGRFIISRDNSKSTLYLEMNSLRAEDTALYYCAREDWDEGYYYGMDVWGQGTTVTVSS VL: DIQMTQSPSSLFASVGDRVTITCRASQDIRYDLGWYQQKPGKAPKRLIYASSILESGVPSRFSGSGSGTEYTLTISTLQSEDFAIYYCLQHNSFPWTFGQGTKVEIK	0.000272 s⁻¹
H4H8083P (antibody, human IgG4, V domains shown, human IgG4 Fc (H4H prefix)) VH: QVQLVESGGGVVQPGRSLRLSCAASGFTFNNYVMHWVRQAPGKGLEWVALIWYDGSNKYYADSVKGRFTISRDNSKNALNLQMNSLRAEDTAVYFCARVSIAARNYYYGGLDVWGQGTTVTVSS VL: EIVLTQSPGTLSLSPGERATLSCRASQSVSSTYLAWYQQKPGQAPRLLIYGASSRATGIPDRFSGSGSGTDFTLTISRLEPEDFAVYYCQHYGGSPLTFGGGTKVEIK	0.000711 s⁻¹

Turning to the following binder.
The binder identified as H4H8060P (antibody, human IgG4, V domains shown, human IgG4 Fc (H4H prefix)) VH: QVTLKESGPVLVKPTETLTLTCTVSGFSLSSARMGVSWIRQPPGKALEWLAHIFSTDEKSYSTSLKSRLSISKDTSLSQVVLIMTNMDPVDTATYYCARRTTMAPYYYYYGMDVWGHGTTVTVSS VL: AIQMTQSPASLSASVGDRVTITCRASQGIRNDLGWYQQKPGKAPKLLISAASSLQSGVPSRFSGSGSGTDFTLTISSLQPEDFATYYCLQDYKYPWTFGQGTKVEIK registered its koff at 0.000393 s⁻¹
